Known pIC50 of a selection of molecules
# TARGET_OR_TEST_SYSTEM: FAK recombinant protein (Homo sapiens (Human), UniProt Q05397)
# Sequence (Q05397 whole entry): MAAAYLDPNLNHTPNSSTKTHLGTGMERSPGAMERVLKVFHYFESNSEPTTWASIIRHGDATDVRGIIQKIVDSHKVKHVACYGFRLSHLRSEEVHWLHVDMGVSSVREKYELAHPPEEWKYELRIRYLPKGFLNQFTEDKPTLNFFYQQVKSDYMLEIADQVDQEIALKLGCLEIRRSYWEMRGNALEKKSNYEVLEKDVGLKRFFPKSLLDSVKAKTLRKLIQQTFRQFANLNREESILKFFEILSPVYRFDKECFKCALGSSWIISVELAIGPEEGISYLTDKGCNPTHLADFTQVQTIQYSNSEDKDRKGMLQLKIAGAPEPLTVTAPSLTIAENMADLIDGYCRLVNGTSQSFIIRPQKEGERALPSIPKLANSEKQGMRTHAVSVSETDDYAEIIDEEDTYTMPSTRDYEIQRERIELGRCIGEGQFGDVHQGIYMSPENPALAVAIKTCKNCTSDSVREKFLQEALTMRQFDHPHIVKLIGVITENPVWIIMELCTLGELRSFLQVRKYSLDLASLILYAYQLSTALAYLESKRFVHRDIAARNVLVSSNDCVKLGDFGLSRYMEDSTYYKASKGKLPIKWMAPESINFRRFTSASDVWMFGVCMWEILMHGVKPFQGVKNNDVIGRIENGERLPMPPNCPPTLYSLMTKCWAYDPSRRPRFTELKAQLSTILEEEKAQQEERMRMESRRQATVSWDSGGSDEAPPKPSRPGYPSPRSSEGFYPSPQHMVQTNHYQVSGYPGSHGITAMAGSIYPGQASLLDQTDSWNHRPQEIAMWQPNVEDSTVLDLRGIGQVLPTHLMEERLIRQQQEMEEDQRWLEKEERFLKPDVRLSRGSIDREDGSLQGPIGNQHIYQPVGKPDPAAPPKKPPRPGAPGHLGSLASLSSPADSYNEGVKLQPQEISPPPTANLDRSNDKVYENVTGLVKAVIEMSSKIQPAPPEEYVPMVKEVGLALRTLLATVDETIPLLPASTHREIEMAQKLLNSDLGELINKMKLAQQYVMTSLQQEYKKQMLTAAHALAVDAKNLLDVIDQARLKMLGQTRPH
# ASSAY_METHOD_TEXT: Inhibitory activity against FAK enzyme (HTRF, TK substrate)
pIC50: −log10 of the molar value.
QUANTITY_NAME: pIC50

MOLECULE	RESULT
COc1cc(N2CCN(C)CC2)ccc1Nc1ncc(C2CC2)c(Oc2cccc3c2C(=O)N(C)C32CC2)n1	> 7.70
COc1cc(N2CC3(CCN(C)CC3)C2)c(F)cc1Nc1ncc(Br)c(Oc2cccc3c2C(=O)N(C)C32CC2)n1	> 7.70
COc1cc(C(=O)NC2CCC3(CC2)CCN(C)C3)ccc1Nc1ncc(C(F)(F)F)c(Cc2cccc3c2C(=O)N(C)C32CC2)n1 (stereo not shown)	> 7.70
CCN1CCC(NC(=O)c2cc(OC)c(Nc3ncc(C(F)(F)F)c(Oc4cccc5c4C(=O)N(C)C54CC4)n3)cc2F)CC1	> 7.70
COc1cc(N2CCC(N(C)C)CC2)c(F)cc1Nc1ncc(Br)c(Oc2cccc3c2C(=O)N(C)C32CC2)n1	> 7.70
COc1cc(C2CCN(C)CC2)ccc1Nc1ncc(Br)c(Oc2cccc3c2C(=O)N(C)C32CC2)n1	> 7.70
COc1cc(N2CC3(CCN(C)CC3)C2)c(F)cc1Nc1ncc(Cl)c(Oc2cccc3c2C(=O)N(C)C32CC2)n1	> 7.70
